- experiment: M. tuberculosis growth inhibition, HTS (AID 1259417);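 note: bacteria grown with compound for 5 days at 37 °C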
- conditionsUsed: M. tuberculosis DsRed fluorescence growth inhibition; concentration not given here
About 760 (69%) of roughly 1,100 compounds were called active. The rule behind the calls is not given here. So high a share suggests a set chosen from earlier hits. Some of the results follow.
Classes to choose from: true (1) (active), false (0) (inactive)

Query string: What is the recorded call for this compound in the test? CCCCn1c(=O)c(C(=O)Nc2nnc(C(C)C)s2)c(O)c2ccccc21
Result string: true (1)

Query string: What do you have for COC(=O)c1ccc(NC(=O)CSc2nc(-c3ccccc3C)ns2)cc1 ?
Result string: true (1)

Query string: What do you have for CCc1c(C)c2ccc(OCC(=O)OC)c(C)c2oc1=O ?
Result string: true (1)

Query string: What do you have for Cc1cc(C)cc(Nc2cc(C)nc3c(-c4ccccc4)cnn23)c1 ?
Result string: false (0)

Query string: What do you have for CSc1nsc(SCC(=O)Nc2ccc(OC(C)=O)cc2)n1 ?
Result string: false (0)

Query string: What do you have for CCOC(=O)c1c(NC(=O)c2ccc([N+](=O)[O-])c(C)c2)sc(C)c1-c1ccccc1 ?
Result string: false (0)

Query string: What do you have for Cc1ccc(-c2nsc(SCC(=O)Nc3ccc4c(c3)OCO4)n2)cc1 ?
Result string: false (0)

Query string: What do you have for COc1cc(NC(=O)c2ccc3c(c2)OCCO3)ccc1NC(=O)c1ccccc1Cl ?
Result string: false (0)

Query string: What do you have for Cc1cc(C)cc(COc2ccc3c(C)c(CCC(=O)O)c(=O)oc3c2C)c1 ?
Result string: false (0)

Query string: What do you have for Oc1ccc(-c2nc3cc4ccccc4cc3nc2-c2ccccc2)cc1 ?
Result string: true (1)

Query string: What do you have for O=C(Nc1ccc2c(c1)OCCO2)c1cccc2nc3ccccc3nc12 ?
Result string: true (1)

Query string: What do you have for O=C(Nc1ncnc2sc3c(c12)CCCC3)c1ccc(F)cc1 ?
Result string: true (1)

Query string: What do you have for O=C(NCc1ccc2c(c1)OCO2)c1cnn2c1NC(c1cccs1)CC2C(F)(F)F (configuration not stated) ?
Result string: true (1)

Query string: What do you have for COc1ccc(CCNC(=O)c2ccc(C#CC(C)(C)O)s2)cc1 ?
Result string: true (1)

Query string: What do you have for CCOC(=O)CSc1ncnc2c1cnn2-c1ccc(C)cc1C ?
Result string: true (1)

Query string: What do you have for NC(=O)c1c(NC(=O)c2ccc(COc3ccccc3Cl)cc2)sc2c1CCCC2 ?
Result string: false (0)

Query string: What do you have for CCOC(=O)C(C)Sc1ncnc2c1nnn2Cc1ccc(F)cc1 (configuration not stated) ?
Result string: false (0)

Query string: What do you have for Cn1ccnc1C(O)c1cc(C(C)(C)C)c(O)c(C(C)(C)C)c1 (configuration not stated) ?
Result string: false (0)

Query string: What do you have for COC(=O)CSc1ncnc2c1nnn2Cc1ccc(F)cc1 ?
Result string: true (1)

Query string: What do you have for CCC(=Nc1ccccc1O)C1=C(O)CC(c2ccccc2)CC1=O (configuration not stated) ?
Result string: true (1)

Query string: What do you have for O=C(NCc1ccco1)c1cnn2c1NC(c1ccc(Br)cc1)CC2C(F)(F)F (configuration not stated) ?
Result string: true (1)

Query string: What do you have for Cc1cccc(N2CCN(c3ncnc4sc5c(c34)CCCC5)CC2)n1 ?
Result string: false (0)
